Reported composite z-score by item:
- Method: probe aLefty1 binding on compound microarray – biochemical, small-molecule microarray, 635/667 nm fluorescence, primary screen (AID 1153);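 note: score merges spot fluorescence with signal-to-noise ratio from the scanned slide images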
- Study conditions: higher = more signal
Hey, just send me the number, nothing else.

Past entries and their recorded results:
[[record]]
chemical_string = "O=C1C[C@@](C(=O)O)(c2ccc([N+](=O)[O-])cc2)[C@@H](c2ccc(CO)cc2)N1CC12CC3CC(CC(C3)C1)C2"
reported = 0.0041

[[record]]
chemical_string = "COCCOC(=O)N1C(=O)[C@@]2(c3cc(C#Cc4ccc(OC)cc4)ccc31)[C@H](C(=O)N1CCc3cc(OC)c(OC)cc3C1)[C@H]1C(=O)O[C@H](c3ccccc3)[C@H](c3ccccc3)N1[C@@H]2c1ccc(O)cc1"
reported = 1.05


Kindly consider the entry below.
Query: What measured composite z-score goes with "NC(=O)NCC#Cc1ccc2c(c1)[C@]1(C(=O)N2)[C@H](c2ccc(OCCO)cc2)N2[C@H](c3ccccc3)[C@H](c3ccccc3)OC(=O)[C@H]2[C@@H]1C(=O)N1CCCCCCC1" ?
Reply: 2.86

Measured values drawn from PubChem BioAssay for this set.
